Data provenance: patent US20260034112A1

In this section we review reported pKd values for a set of compounds.
tgt: IRAK1 (Homo sapiens, UniProt P51617)
Sequence (P51617 whole entry): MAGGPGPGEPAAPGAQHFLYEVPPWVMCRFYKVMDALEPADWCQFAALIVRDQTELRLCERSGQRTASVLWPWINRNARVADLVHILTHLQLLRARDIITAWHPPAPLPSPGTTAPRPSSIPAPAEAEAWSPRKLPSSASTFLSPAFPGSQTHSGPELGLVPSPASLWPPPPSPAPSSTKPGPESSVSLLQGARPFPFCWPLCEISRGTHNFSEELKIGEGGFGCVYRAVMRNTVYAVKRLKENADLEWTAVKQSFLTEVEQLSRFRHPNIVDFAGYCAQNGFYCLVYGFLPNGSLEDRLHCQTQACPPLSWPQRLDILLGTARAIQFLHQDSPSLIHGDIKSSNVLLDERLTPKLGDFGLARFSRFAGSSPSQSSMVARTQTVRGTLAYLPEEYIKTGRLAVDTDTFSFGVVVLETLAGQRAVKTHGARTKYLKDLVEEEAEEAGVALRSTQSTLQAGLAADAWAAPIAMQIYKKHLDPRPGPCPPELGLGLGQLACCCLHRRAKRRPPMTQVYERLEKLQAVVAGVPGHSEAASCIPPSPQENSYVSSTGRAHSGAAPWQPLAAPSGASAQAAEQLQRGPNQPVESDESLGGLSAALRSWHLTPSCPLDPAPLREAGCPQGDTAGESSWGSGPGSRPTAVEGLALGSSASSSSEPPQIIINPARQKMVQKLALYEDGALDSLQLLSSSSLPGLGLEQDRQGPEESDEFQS
// returns pKd (minus log10 of molar concentration), number only

| entry smiles | pKd |
| --- | --- |
| CC1(c2ccc3ncc(-c4cccc(N[C@@H]5CCNC5)n4)n3c2)CC1 | 8.66 |

Quickly give me recorded pKd for `COc1ccc2ncc(-c3cccc(N[C@@H]4CCCNC4)n3)n2c1`
6.82

====

tgt: IRAK4 (Homo sapiens)
Construct: purchased Reaction Biology (contract assay service)
Sequence (Q9NWZ3 whole entry): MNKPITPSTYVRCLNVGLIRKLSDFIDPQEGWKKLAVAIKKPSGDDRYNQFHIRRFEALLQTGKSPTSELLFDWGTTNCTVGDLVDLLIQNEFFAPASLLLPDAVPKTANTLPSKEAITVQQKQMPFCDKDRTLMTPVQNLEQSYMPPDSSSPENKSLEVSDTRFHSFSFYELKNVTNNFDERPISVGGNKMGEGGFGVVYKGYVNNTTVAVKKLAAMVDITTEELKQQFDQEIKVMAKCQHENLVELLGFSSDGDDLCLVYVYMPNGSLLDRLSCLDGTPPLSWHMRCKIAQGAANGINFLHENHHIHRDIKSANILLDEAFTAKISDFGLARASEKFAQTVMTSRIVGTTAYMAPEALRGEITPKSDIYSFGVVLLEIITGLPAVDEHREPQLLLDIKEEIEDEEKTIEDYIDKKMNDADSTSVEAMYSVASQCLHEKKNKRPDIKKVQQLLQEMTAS
measurement protocol: Reaction Biology Kinase Assay service, kinase inhibition (IC50)
Type: biochemical
experimental parameters: Table 1; unit nM; read-out: Reaction Bio IRAK4 IC50
value type: IC50 (nM)
Reply numerically in nM, unit not repeated.

# return recorded IC50 for entry `COc1cc2ncc(-c3nc(N[C@@H]4CCCNC4)c(F)cc3F)n2nc1C1CC1`
1.54
